Provide the recorded log P for the entries that follow.
Assay: Octanol/water partition coefficient of radiolabeled gallium complexes
Type: physicochemical
Conditions: octanol/tris buffer, pH 7

For each listed entry, give its log P.
1. [67Ga+3].[O-]c1ccccc1C=NCCCNCCNCCCN=Cc1ccccc1[O-] [Sal2 BAPEN]
2. COc1ccc([O-])c(C=NCCCNCCNCCCN=Cc2cc(OC)ccc2[O-])c1.[67Ga+3] [(5-MeOSal)2 BAPEN]
3. CCN(CC)c1ccc(C=NCCCNCCNCCCN=Cc2ccc(N(CC)CC)cc2[O-])c([O-])c1.[67Ga+3] [(4-deaSal)2 BAPEN]
4. COc1cc([O-])c(C=NCCCNCCNCCCN=Cc2c([O-])cc(OC)cc2OC)c(OC)c1.[67Ga+3] [(4,6-MeO2 Sal)2 BAPEN]

Marked response:
[0.56, 0.53, 2.44, 1.68]

Exam item: Name the recorded log P for COc1ccc(C=NCCCNCCNCCCN=Cc2ccc(OC)cc2[O-])c([O-])c1.[67Ga+3] [(4-MeOSal)2 BAPEN] .
Marked response: 0.80
